Tested on: Escherichia coli TOP10;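 note: peptides expressed intracellularly from a pBAD plasmid library in pooled LB shake-flask culture, induced with 0.3% L-arabinose, DNA abundance read by NGS, three biological replicates, DESeq2 with apeglm shrinkage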
assay-info: shrunken log2 fold change of peptide-encoding DNA abundance (4.5 h post-induction vs induction); higher = less antimicrobial activity (less host growth inhibition)
experimental-setup: time post-induction: 4.5 h; library: site-saturation at positions 5, 18, 19, 20
Classification field: MET = shrunken log2 fold change at or over -0.1; NOT MET = shrunken log2 fold change under -0.1.

**Q:** Evaluate RRIRNRPPRLPRPRPRPGDPPRP : shrunken log2 fold change at minimum -0.1?
**A:** MET

**Q:** Evaluate RRIRPRPPRLPRPRPRPHDKPRP : shrunken log2 fold change at minimum -0.1?
**A:** NOT MET

**Q:** Evaluate RRIRCRPPRLPRPRPRPQFIPRP : shrunken log2 fold change at minimum -0.1?
**A:** NOT MET

**Q:** Evaluate RRIRSRPPRLPRPRPRPFWDPRP : shrunken log2 fold change at minimum -0.1?
**A:** MET

**Q:** Evaluate RRIRIRPPRLPRPRPRPMGRPRP : shrunken log2 fold change at minimum -0.1?
**A:** MET

**Q:** Evaluate RRIRKRPPRLPRPRPRPDGMPRP : shrunken log2 fold change at minimum -0.1?
**A:** MET

**Q:** Evaluate RRIRYRPPRLPRPRPRPTMNPRP : shrunken log2 fold change at minimum -0.1?
**A:** NOT MET

**Q:** Evaluate RRIRARPPRLPRPRPRPRVVPRP : shrunken log2 fold change at minimum -0.1?
**A:** MET

**Q:** Evaluate RRIRCRPPRLPRPRPRPLKNPRP : shrunken log2 fold change at minimum -0.1?
**A:** NOT MET

**Q:** Evaluate RRIRCRPPRLPRPRPRPPMDPRP : shrunken log2 fold change at minimum -0.1?
**A:** MET

**Q:** Evaluate RRIRCRPPRLPRPRPRPYGDPRP : shrunken log2 fold change at minimum -0.1?
**A:** NOT MET

**Q:** Evaluate RRIRVRPPRLPRPRPRPLVPPRP : shrunken log2 fold change at minimum -0.1?
**A:** MET

**Q:** Evaluate RRIRYRPPRLPRPRPRPCFHPRP : shrunken log2 fold change at minimum -0.1?
**A:** NOT MET

**Q:** Evaluate RRIRQRPPRLPRPRPRPCSDPRP : shrunken log2 fold change at minimum -0.1?
**A:** NOT MET

**Q:** Evaluate RRIRYRPPRLPRPRPRPEWNPRP : shrunken log2 fold change at minimum -0.1?
**A:** NOT MET

**Q:** Evaluate RRIRKRPPRLPRPRPRPPRNPRP : shrunken log2 fold change at minimum -0.1?
**A:** MET

**Q:** Evaluate RRIRVRPPRLPRPRPRPSHKPRP : shrunken log2 fold change at minimum -0.1?
**A:** NOT MET

**Q:** Evaluate RRIRKRPPRLPRPRPRPGSYPRP : shrunken log2 fold change at minimum -0.1?
**A:** MET

**Q:** Evaluate RRIRHRPPRLPRPRPRPEIWPRP : shrunken log2 fold change at minimum -0.1?
**A:** MET

**Q:** Evaluate RRIRRRPPRLPRPRPRPALYPRP : shrunken log2 fold change at minimum -0.1?
**A:** MET
